Value source: PubChem BioAssay

Test system: Plasmodium falciparum Sir2 (PF13_0152, Sir2A)
Test: pfSir2 binders on small-molecule microarrays, primary screen, biochemical, small-molecule microarray, 635 nm fluorescence (AID 1098);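 further: score merges spot fluorescence intensity with its signal-to-noise ratio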
Conditions: small-molecule microarray binding, fluorescence 635 nm; higher = more signal
Recorded composite z-score, one value per entry.

>  <compound>
[N-]=[N+]=NCc1ccccc1C[C@@]1(C(=O)N2CCCCC2)N=C(c2ccc(OCCCO)cc2)O[C@@H]1c1ccccc1

>  <composite z-score>
0.884

$$$$
>  <compound>
CN1C(=O)C2C=CC(C(O)COCc3ccccc3)N(N(c3ccccc3)c3ccccc3)C2C1=O (stereo not drawn)

>  <composite z-score>
0.35

$$$$
>  <compound>
COCCOC(=O)N1C(=O)[C@@]2(c3cc(C#Cc4ccc(OC)cc4)ccc31)[C@H](C(=O)Nc1nc3ccccc3s1)[C@H]1C(=O)O[C@H](c3ccccc3)[C@H](c3ccccc3)N1[C@@H]2c1ccc(O)cc1

>  <composite z-score>
1.48

$$$$

====

Recorded composite z-score, one value per entry.
Biological target: Neurogenic locus notch homolog protein 2 (Homo sapiens) (UniProt Q04721)
Sequence (Q04721 whole entry, looked up): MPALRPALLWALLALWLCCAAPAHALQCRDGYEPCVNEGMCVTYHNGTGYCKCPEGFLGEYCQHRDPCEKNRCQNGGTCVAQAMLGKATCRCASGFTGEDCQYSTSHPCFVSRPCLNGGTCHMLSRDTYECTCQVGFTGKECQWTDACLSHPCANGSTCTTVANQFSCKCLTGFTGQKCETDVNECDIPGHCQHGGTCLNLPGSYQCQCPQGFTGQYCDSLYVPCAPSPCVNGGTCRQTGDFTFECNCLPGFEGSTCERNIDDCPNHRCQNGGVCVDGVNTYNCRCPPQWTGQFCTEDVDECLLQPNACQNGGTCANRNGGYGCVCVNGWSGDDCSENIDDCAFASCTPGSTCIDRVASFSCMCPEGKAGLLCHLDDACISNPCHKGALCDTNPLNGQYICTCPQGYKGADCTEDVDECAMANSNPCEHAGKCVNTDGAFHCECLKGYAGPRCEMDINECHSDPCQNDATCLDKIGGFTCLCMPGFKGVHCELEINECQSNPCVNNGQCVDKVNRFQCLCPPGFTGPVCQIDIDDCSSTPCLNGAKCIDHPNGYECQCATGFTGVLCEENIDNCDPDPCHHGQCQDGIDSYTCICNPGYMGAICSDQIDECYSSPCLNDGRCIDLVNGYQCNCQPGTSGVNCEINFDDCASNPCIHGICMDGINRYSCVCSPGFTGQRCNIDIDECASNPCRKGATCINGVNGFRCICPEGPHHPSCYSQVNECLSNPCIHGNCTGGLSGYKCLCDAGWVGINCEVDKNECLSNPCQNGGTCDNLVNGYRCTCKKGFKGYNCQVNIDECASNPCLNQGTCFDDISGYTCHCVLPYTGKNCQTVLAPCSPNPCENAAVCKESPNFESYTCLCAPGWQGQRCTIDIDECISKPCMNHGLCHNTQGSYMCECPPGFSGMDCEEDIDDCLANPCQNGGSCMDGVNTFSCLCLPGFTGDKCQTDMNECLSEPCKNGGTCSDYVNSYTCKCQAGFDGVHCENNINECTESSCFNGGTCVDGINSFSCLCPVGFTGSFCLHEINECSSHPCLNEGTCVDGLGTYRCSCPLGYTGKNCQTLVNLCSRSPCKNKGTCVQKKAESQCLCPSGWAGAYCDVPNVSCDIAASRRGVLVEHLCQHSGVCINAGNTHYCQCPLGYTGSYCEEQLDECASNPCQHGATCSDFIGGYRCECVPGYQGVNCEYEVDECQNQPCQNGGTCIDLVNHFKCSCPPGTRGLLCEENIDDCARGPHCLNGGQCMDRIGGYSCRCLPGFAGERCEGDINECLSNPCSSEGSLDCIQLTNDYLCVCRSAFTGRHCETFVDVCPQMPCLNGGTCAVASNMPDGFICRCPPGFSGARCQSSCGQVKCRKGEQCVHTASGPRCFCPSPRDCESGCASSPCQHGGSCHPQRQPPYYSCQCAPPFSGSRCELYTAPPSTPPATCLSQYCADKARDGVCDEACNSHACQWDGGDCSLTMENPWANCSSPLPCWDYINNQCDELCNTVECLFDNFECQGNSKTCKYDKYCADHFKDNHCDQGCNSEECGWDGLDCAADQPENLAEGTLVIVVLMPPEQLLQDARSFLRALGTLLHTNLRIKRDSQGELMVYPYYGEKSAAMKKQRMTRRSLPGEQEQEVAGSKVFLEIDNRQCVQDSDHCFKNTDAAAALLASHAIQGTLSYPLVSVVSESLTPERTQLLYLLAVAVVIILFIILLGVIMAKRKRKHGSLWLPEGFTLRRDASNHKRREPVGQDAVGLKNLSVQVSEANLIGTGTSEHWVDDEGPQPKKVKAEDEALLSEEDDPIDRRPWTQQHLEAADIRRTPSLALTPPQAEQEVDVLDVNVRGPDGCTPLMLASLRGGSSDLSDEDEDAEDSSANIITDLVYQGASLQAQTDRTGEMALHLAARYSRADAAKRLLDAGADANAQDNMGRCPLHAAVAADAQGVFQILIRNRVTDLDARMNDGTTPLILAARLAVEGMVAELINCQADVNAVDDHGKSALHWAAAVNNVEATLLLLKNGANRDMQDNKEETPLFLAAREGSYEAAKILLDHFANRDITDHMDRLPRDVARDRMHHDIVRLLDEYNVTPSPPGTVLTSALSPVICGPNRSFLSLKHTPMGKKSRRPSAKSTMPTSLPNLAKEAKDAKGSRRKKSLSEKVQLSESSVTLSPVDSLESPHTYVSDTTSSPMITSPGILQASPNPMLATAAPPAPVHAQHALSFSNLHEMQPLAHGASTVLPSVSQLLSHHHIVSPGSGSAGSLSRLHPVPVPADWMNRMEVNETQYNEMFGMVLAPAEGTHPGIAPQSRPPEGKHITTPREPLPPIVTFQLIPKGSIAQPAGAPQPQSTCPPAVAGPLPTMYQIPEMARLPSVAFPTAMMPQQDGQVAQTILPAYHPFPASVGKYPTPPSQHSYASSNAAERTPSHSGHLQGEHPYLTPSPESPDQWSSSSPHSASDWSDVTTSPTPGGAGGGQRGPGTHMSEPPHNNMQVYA
Experiment: Notch2 binders on small-molecule microarrays, primary screen, biochemical, small-molecule microarray, 635 nm fluorescence, stem cell growth factors (AID 1073)
Settings: Notch2 binding, higher = more signal
result_type: composite z-score

>  <compound>
[N-]=[N+]=NCc1ccccc1[C@H]1OC(c2ccc(OCCCO)cc2)=N[C@@]1(CCS(=O)(=O)c1ccccc1)C(=O)N1CCCCC1

>  <target_under_test>
Neurogenic locus notch homolog protein 2 (Homo sapiens) (UniProt Q04721)

>  <observed_result>
1.51

$$$$
>  <compound>
CC(C)C[C@@H]1NC(=O)[C@@H]2C[C@H](C(=O)NCCCCCN)[C@H](c3ccc(O)cc3)N2C1=O

>  <target_under_test>
Neurogenic locus notch homolog protein 2 (Homo sapiens) (UniProt Q04721)

>  <observed_result>
0.727

$$$$
>  <compound>
COc1ccc(C(O)C2C=CC3C(=O)N(c4ccccc4)C(=O)C3N2Nc2ccc([N+](=O)[O-])cc2)cc1 (centres undefined)

>  <target_under_test>
Neurogenic locus notch homolog protein 2 (Homo sapiens) (UniProt Q04721)

>  <observed_result>
1.64

$$$$
>  <compound>
COC(=O)[C@@]1(Cc2ccccc2)[C@@H]2C(=CC(=O)[C@H]2CC(=O)C(=O)N(C)C)CN1C(=O)c1ccccc1

>  <target_under_test>
Neurogenic locus notch homolog protein 2 (Homo sapiens) (UniProt Q04721)

>  <observed_result>
1.39

$$$$

====

Molecular target: Luciferin 4-monooxygenase (Photinus pyralis) (UniProt P08659)
Sequence (P08659 whole entry, looked up): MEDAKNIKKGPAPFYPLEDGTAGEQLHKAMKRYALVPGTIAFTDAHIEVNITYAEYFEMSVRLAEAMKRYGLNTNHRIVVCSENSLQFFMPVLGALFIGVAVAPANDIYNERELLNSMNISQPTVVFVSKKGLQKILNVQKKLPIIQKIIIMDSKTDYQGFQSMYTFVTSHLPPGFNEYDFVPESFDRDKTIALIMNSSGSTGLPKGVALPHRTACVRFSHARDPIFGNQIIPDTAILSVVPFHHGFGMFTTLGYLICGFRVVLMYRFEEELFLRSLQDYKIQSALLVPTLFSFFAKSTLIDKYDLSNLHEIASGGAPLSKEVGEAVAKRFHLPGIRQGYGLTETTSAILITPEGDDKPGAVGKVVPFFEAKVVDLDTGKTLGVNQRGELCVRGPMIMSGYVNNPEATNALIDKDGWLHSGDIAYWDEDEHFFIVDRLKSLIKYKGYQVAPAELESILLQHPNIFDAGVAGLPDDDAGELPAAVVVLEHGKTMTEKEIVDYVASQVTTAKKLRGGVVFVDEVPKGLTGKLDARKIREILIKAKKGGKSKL
Assay: firefly luciferase enzyme inhibitors, primary screen, biochemical, luminescence, purified enzyme, 2006 set (AID 1141);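 further: cell-free assay with purified firefly luciferase at 100 ng per well in PBS; test concentration not given here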
Conditions: SteadyGlo luminescence, 30 min, higher = more signal, called active from +8 up or from −8 down
result_type: z-score

>  <compound>
COc1cc2c(cc1OC)CN(C(=O)[C@@H]1[C@H]3C(=O)O[C@H](c4ccccc4)[C@H](c4ccccc4)N3[C@H](c3ccc(OCCO)cc3)[C@@]13C(=O)Nc1ccccc13)CC2

>  <result_type>
z-score

>  <observed_result>
-1.65

$$$$
>  <compound>
COCCCNC(=O)[C@@]1(Cc2ccccc2N=[N+]=[N-])COC(c2ccc(OCCCO)cc2)=N1

>  <result_type>
z-score

>  <observed_result>
-2.1

$$$$
>  <compound>
COc1ccc([Si](C)(C)[C@H]2[C@H](CCn3cc([C@H](O)c4ccccc4)nn3)O[C@@]3(C(=O)N(Cc4ccc(N5C(=O)c6cccc7cccc5c67)cc4)c4ccccc43)[C@@H]2C)cc1

>  <result_type>
z-score

>  <observed_result>
-1.19

$$$$
>  <compound>
C#CCN([C@@H](Cc1ccc(O)cc1)C(=O)OC)[C@@H](/C=C/C1CC1)[C@H](O)Cc1ccccc1

>  <result_type>
z-score

>  <observed_result>
-0.0396

$$$$

====

Biological target: Torsin-1A-interacting protein 1 (Homo sapiens) (UniProt Q5JTV8)
Sequence (Q5JTV8 whole entry, looked up): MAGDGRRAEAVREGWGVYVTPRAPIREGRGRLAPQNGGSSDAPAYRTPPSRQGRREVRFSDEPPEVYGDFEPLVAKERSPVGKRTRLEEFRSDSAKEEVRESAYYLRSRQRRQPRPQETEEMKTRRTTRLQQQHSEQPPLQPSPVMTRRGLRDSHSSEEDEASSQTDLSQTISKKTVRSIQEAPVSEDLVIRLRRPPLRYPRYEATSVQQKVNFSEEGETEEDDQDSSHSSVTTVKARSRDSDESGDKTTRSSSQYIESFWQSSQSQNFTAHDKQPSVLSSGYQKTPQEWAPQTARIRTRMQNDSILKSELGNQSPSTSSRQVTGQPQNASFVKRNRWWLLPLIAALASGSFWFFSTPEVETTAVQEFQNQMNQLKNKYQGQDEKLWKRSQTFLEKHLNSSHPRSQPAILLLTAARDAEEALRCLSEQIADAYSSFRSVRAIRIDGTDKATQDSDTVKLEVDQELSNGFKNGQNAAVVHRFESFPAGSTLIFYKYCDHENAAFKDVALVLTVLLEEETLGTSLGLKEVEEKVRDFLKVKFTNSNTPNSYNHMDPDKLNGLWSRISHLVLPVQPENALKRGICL
Experiment: LAP1 binders from COS7 cell lysate, primary screen, small-molecule microarray, 635/667 nm fluorescence (AID 1116)
Details: COS7-hLAP1 lysate binding, 635 nm fluorescence, higher = more signal
result_type: composite z-score

>  <compound>
Cc1ccc(S[C@]2(C(=O)O)CC(=O)N(Cc3ccccc3Cl)[C@@H]2c2ccc(CO)cc2I)cc1

>  <target_under_test>
Torsin-1A-interacting protein 1 (Homo sapiens) (UniProt Q5JTV8)

>  <observed_result>
-0.421

$$$$
>  <compound>
COc1ccc([Si](C)(C)[C@@H]2[C@@H](CCO)O[C@]3(C(=O)N(Cc4ccc(N5CCCCC5=O)cc4)c4ccccc43)[C@H]2C)cc1

>  <target_under_test>
Torsin-1A-interacting protein 1 (Homo sapiens) (UniProt Q5JTV8)

>  <observed_result>
0.467

$$$$
>  <compound>
CC(=O)NCCCC[C@@H]1NC(=O)[C@H]2C[C@@H](C(=O)NCCCC[N+](C)(C)C)[C@@H](c3cccc(OCCO)c3)N2C1=O

>  <target_under_test>
Torsin-1A-interacting protein 1 (Homo sapiens) (UniProt Q5JTV8)

>  <observed_result>
1.04

$$$$
>  <compound>
CC(C)(C)N1CC=CC23O[C@@H]4C=CCCOC(=O)C4[C@H]2C(=O)N(CCO)[C@@H]3C1=O (some centres undefined)

>  <target_under_test>
Torsin-1A-interacting protein 1 (Homo sapiens) (UniProt Q5JTV8)

>  <observed_result>
-0.108

$$$$
>  <compound>
[N-]=[N+]=Nc1ccccc1[C@H]1OC(c2ccc(OCCCO)cc2)=N[C@@]1(Cc1ccccc1)C(=O)N1CCCCC1

>  <target_under_test>
Torsin-1A-interacting protein 1 (Homo sapiens) (UniProt Q5JTV8)

>  <observed_result>
2.12

$$$$
>  <compound>
CCOC(=O)C[C@H]1[C@H](OC(=O)c2cc3ccccc3oc2=O)[C@@H](NC(=O)c2ccc(-c3ccccc3)cc2)c2cc(OCCCO)ccc2N1C(=O)c1ccc2ccccc2n1

>  <target_under_test>
Torsin-1A-interacting protein 1 (Homo sapiens) (UniProt Q5JTV8)

>  <observed_result>
0.624

$$$$
>  <compound>
[N-]=[N+]=NCc1ccccc1C[C@]1(C(N)=O)N=C(c2ccc(OCCCO)cc2)O[C@H]1c1ccccc1

>  <target_under_test>
Torsin-1A-interacting protein 1 (Homo sapiens) (UniProt Q5JTV8)

>  <observed_result>
2.27

$$$$
>  <compound>
COCCCNC(=O)[C@]1(CCS(=O)(=O)c2ccccc2)N=C(c2ccc(OCCCO)cc2)O[C@@H]1c1ccccc1CN=[N+]=[N-]

>  <target_under_test>
Torsin-1A-interacting protein 1 (Homo sapiens) (UniProt Q5JTV8)

>  <observed_result>
2.7

$$$$
>  <compound>
CO[C@H]1O[C@H](CO)[C@@H](OC(=O)Nc2ccccc2-c2ccccc2)[C@H](OC(=O)Nc2ccc3c(c2)OCO3)[C@H]1OC(=O)Nc1ccc2c(c1)OCO2

>  <target_under_test>
Torsin-1A-interacting protein 1 (Homo sapiens) (UniProt Q5JTV8)

>  <observed_result>
1.76

$$$$
>  <compound>
CCOC(=O)C1=C[C@@H](c2ccccc2)N(S(=O)(=O)c2ccc(C)cc2)[C@H]1c1ccccc1Cl

>  <target_under_test>
Torsin-1A-interacting protein 1 (Homo sapiens) (UniProt Q5JTV8)

>  <observed_result>
0.731

$$$$
>  <compound>
C=CCN1Cc2ccccc2[C@H]2OC(c3ccc(OCCCO)cc3)=N[C@@]2(CC=C)C1=O

>  <target_under_test>
Torsin-1A-interacting protein 1 (Homo sapiens) (UniProt Q5JTV8)

>  <observed_result>
-0.0689

$$$$
>  <compound>
C=CCC(OC(C)=O)[C@@H]1[C@@H](N(Cc2ccc(-c3cccc(C(F)(F)F)c3)o2)C(=O)c2ccc(-c3ccccc3)cc2)c2cc(OCCCO)ccc2N1C(=O)c1ccc2ccccc2n1 (some centres undefined)

>  <target_under_test>
Torsin-1A-interacting protein 1 (Homo sapiens) (UniProt Q5JTV8)

>  <observed_result>
-0.2

$$$$
>  <compound>
C=CC[C@]1(C(=O)O)COC(c2ccc(OCCCO)cc2)=N1

>  <target_under_test>
Torsin-1A-interacting protein 1 (Homo sapiens) (UniProt Q5JTV8)

>  <observed_result>
-0.0942

$$$$
>  <compound>
COc1ccc([Si](C)(C)[C@@H]2[C@@H](CC(=O)N(CCO)Cc3ccccc3)O[C@]3(C(=O)N(Cc4cccc(N5C(=O)c6cccc7cccc5c67)c4)c4ccccc43)[C@H]2C)cc1

>  <target_under_test>
Torsin-1A-interacting protein 1 (Homo sapiens) (UniProt Q5JTV8)

>  <observed_result>
0.566

$$$$

====

Assay: small-molecule microarray binders of probe aEGFR, primary screen, biochemical, biotinylated probe, 635/667 nm fluorescence (AID 1097);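 further: probe is a biotinylated anti-EGFR antibody binding compounds printed on slides; score combines fluorescence near 667 nm and signal to noise of each spot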
Conditions: higher = more signal
Recorded composite z-score, one value per entry.

>  <compound>
O=C(CS)NCCCCCCNC(=O)[C@H]1C[C@H]2C(=O)N[C@@H](Cc3ccccc3)C(=O)N2[C@H]1c1ccc(O)cc1

>  <composite z-score>
-0.105

$$$$
>  <compound>
C[N+](C)(C)CCCCCCNC(=O)[C@H]1C[C@H]2C(=O)N[C@@H](Cc3ccccc3)C(=O)N2[C@H]1c1ccc(O)cc1

>  <composite z-score>
-0.136

$$$$
>  <compound>
C=CCN1C(=O)[C@@]2(O[C@@H](CCn3cc([C@H](O)c4ccccc4)nn3)[C@H]([Si](C)(C)c3ccc(OC)cc3)[C@H]2C)c2cc(N3CCC3=O)ccc21

>  <composite z-score>
-0.183

$$$$
>  <compound>
CN(C)CCCNC(=O)[C@@H]1c2ccccc2C(=O)N(Cc2ccccc2Cl)[C@H]1c1ccc(CO)cc1

>  <composite z-score>
0.0733

$$$$
>  <compound>
O=C(NCC(F)(F)F)[C@@H]1c2ccccc2C(=O)N(Cc2ccc(OC(F)(F)F)cc2)[C@H]1c1ccc(CO)cc1

>  <composite z-score>
-0.0978

$$$$
>  <compound>
O=C1OCC=C[C@H]2OC34C=CCN(Cc5ccccc5)C(=O)[C@H]3N(CCCCCCO)C(=O)[C@@H]4[C@@H]12 (some centres undefined)

>  <composite z-score>
-0.159

$$$$
>  <compound>
COCCOC(=O)N1C(=O)[C@@]2(c3cc(C#Cc4ccc(OC)cc4)ccc31)[C@H](c1ccc(O)cc1)N1[C@H](c3ccccc3)[C@H](c3ccccc3)OC(=O)[C@H]1[C@@H]2C(=O)N1CCCCCCC1

>  <composite z-score>
0.642

$$$$
>  <compound>
CCC(CC)C(O)C1C=CC2C(=O)N(c3ccccc3)C(=O)C2N1Nc1ccc(C(C)C)cc1 (centres undefined)

>  <composite z-score>
0.118

$$$$
>  <compound>
CCCCC(=C=CC[C@@H](O)c1ccccc1OCCO)C[C@@H](O)COCc1ccccc1

>  <composite z-score>
-0.209

$$$$
>  <compound>
C=CCC(OC(C)=O)[C@@H]1[C@@H](N(Cc2cc3ccccc3o2)C(=O)Cc2ccc(F)cc2)c2cc(OCCCO)ccc2N1C(=O)c1ccc2ccccc2c1 (some centres undefined)

>  <composite z-score>
-0.112

$$$$
>  <compound>
Cc1ccccc1C(O)C1C=CC2C(=O)N(C)C(=O)C2N1N(c1ccccc1)c1ccccc1 (centres undefined)

>  <composite z-score>
0.409

$$$$
>  <compound>
C=CCC(OC(C)=O)[C@@H]1[C@@H](N(Cc2ccc(-c3cccc(C(F)(F)F)c3)o2)C(=O)c2ccc(C)cc2)c2cc(OCCCO)ccc2N1C(=O)c1ccc2ccccc2c1 (some centres undefined)

>  <composite z-score>
-0.125

$$$$
>  <compound>
COC(=O)[C@@]1(Cc2ccc(F)cc2)[C@H]2c3cc(C(=O)N4CCCC4)n(CCc4ccc(O)c(O)c4)c3C[C@H]2CN1C(=O)c1ccccc1

>  <composite z-score>
0.978

$$$$
>  <compound>
COCCOC(=O)N1C(=O)[C@@]2(c3cc(C#CC4=CCCCC4)ccc31)[C@H](c1ccccc1OCCO)N1[C@H](c3ccccc3)[C@H](c3ccccc3)OC(=O)[C@H]1[C@@H]2C(=O)Nc1nc2ccccc2s1

>  <composite z-score>
-0.0728

$$$$
